Tested on: MDA-N
assay name: NCI tumour cell line growth inhibition, 48 h
Active and inactive are the calls of the source. Cut-off read from the data, not from the text of the source: active = GI50 up to about 1.1 µM and inactive = higher.
Can you answer with just one of these options? active, inactive

Record request — test call for C1COCCN1.S=C(S)N1CCOCC1
inactive

Follow-up entry: NS(=O)(=O)c1ccc(NC(NC(=O)C(C(F)(F)F)C(F)(F)F)(C(F)(F)F)C(F)(F)F)cc1
inactive

Follow-up entry: CC(C)=CCC/C(C)=C/CC/C(C)=C/CC/C(=C/CC/C(C)=C\CC/C(C)=C/CC/C(C)=C/CC/C(C)=C/Cc1cc(O)ccc1O)CO
inactive

Follow-up entry: CC(=O)O[C@H]1[C@H](OC(=O)CC(C)(O)CC(=O)O)C[C@]2(C)C3=C(CCC2C1(C)C)[C@]1(C)CC[C@H]([C@H]2CC[C@H](C(C)(C)O)OC2O)[C@@]1(C)[C@@H](O)C3 (some centres not stated)
inactive

Follow-up entry: COc1ccc2nc3cc(Cl)ccc3c(NCCCNCc3cc(OC)c(OC)c(OC)c3)c2c1
inactive

Follow-up entry: Cc1ccc2[nH]c3c(c2c1)C1CCC(C(C)(C)C)CC1C1C(=O)N(c2ccc(Oc4ccccc4)cc2)C(=O)C31 (configuration not stated)
inactive

Follow-up entry: CC1CC[C@@]2(OC1)OC1C[C@H]3[C@@H]4CC[C@H]5CC(OC6OC(CO)C(OC7OC(CO)C(O)C(O)C7OC7OC(CO)C(O)C(O)C7O)C(O)C6O)CCC5(C)[C@H]4CCC3(C)C1[C@@H]2C (some centres not stated)
inactive

Follow-up entry: Brc1ccc2c(c1)-c1nc3c(cc1CC2)CCc1ccc(Br)cc1-3
inactive

Follow-up entry: CCCCCCCCCCCCC(O)C1CCC(C(O)CCCCC(O)CCCCCC2CC(CC(C)=O)C(=O)O2)O1 (configuration not stated)
inactive

Follow-up entry: C[C@H](Nc1nc(N)c(N=O)c(=O)n1C)C(=O)O
inactive

Follow-up entry: Cc1oc(N)c(S(=O)(=O)c2cc3ccccc3[n+]([O-])c2N)c1C
inactive

Follow-up entry: COC(=O)c1ccc(S)c(S(=O)(=O)Nc2nc(N)n[nH]2)c1
inactive

Follow-up entry: Fc1ccccc1C1SCc2nc3cc4ccccc4cc3n21 (configuration not stated)
inactive

Follow-up entry: CCOC(=O)CC(c1ccccc1)C(C)(C(=O)OCC)C(=O)OCC (configuration not stated)
inactive

Follow-up entry: CC(C)C1=CC23CCC4C(C)(C(=O)O)CCCC4(C)C2CC1C1C(=O)N(c2ccc(Cc4ccc(N5C(=O)C6C7CC8C9(C)CCCC(C)(C(=O)O)C9CCC8(C=C7C(C)C)C6C5=O)cc4)cc2)C(=O)C13 (configuration not stated)
inactive

Follow-up entry: CC(=O)NC1C(OCc2ccccc2)OC(CO)C(O)C1OC(C)C(=O)NC(C)C(=O)N[C@@H](CCC(=O)OCCCNC1c2ccccc2Nc2cccc([N+](=O)[O-])c21)C(N)=O (some centres not stated)
active

Follow-up entry: O=C(O)Cc1cccc2c(=O)c3cccc([N+](=O)[O-])c3[nH]c12
inactive

Follow-up entry: O=C(Nn1c(-c2ccccc2)nc2ccccc2c1=O)c1ccccc1O
inactive

Follow-up entry: Cc1c2ccccc2cc2nc3ccccc3n12
inactive

Follow-up entry: CN1COCc2c1ccc1cc3ccc4c(c3nc21)COCN4S(C)(=O)=O
inactive

Follow-up entry: CCSc1ncnc2c(C3OC(CO)C(O)C3O)nsc12 (configuration not stated)
inactive

Follow-up entry: O=C(NCCCNC(=O)c1ccc2cc(O)c(O)cc2c1)c1ccc2cc(O)c(O)cc2c1
inactive

Follow-up entry: COc1ccc(NC2Oc3cc4c(cc3C(c3cccc(OC)c3OC)C2C)OCO4)cc1 (configuration not stated)
inactive

Follow-up entry: N#CC1Nc2ccccc2[C@@H](O)C1O (some centres not stated)
inactive

Follow-up entry: O=C1C(c2c(O)[nH]c3ccc([N+](=O)[O-])cc23)=Nc2ccccc21
inactive

Follow-up entry: C#CCCCC(=C)C[C@@H]1OC(=O)[C@H](C)[C@@H]1O
inactive

Follow-up entry: CC1CN=C(N(C(=O)Nc2ccc(Cl)c(Cl)c2)c2ccccc2)S1 (configuration not stated)
inactive

Follow-up entry: COc1cc(/C=C2\CCC(C)C3=C2N=c2s/c(=C/c4ccc(Cl)cc4)c(=O)n2C3c2cc(OC)c(OC)c(OC)c2)cc(OC)c1OC (configuration not stated)
inactive

Follow-up entry: Cc1ccc(N/C(SCc2ccccc2)=C(\C(Cl)=C(Cl)Cl)[N+](=O)[O-])c(C)c1
inactive

Follow-up entry: O=C1NC(=O)C(CCC(=O)c2cccc3ccccc23)C(=O)N1
inactive

Follow-up entry: Fc1cccc(F)c1C1SCc2nc3cc(Cl)ccc3n21 (configuration not stated)
inactive

Follow-up entry: COc1ccc(NC2=NCCO2)c2ccccc12
inactive

Follow-up entry: O=C1N=C(Nc2ccccc2Cl)N/C1=C\c1ccc(Cl)cc1Cl
inactive

Follow-up entry: COC(=O)C1=C(C(=O)OC)C(Cc2ccccc2)(OO)OC1=O (configuration not stated)
inactive

Follow-up entry: CCNC(=O)Cc1nc2c(O)ncnc2n1C1OC(CO)C(O)C1O (configuration not stated)
inactive

Follow-up entry: COc1cc(C)c2c(=O)c3ccccc3n(C)c2c1
inactive

Follow-up entry: CN(C)c1ccc(-c2c(C#N)c(O)n(NS(=O)(=O)c3ccccc3)c(=O)c2C#N)cc1
inactive
